Values from paper PMC8041284

Target: BTK (Homo sapiens)
Test: biochemical
Conditions: read-out: BTK inhibition (%), 0.75 uM BTK, […] probe 3l, 15 min preincubation
Readings of inhibition at 10 µM for the listed molecules
Give just the number in %; leave the unit off.

1. Cc1cc(C)c(-c2csc(NC(=O)c3ccccc3)n2)c(C)c1
41.7
2. CCCCCCC[C@H](O)CC(=O)CCc1ccc(O)c(OC)c1
-41.7
3. NC1=NC(=O)/C(=C/c2ccc(O)cc2)S1
17
4. CC1(C)CCC[C@]2(C)[C@H]3CCO[C@]3(C)CC[C@@H]12
15.4

Query block: Give inhibition at 10 µM (BTK (Homo sapiens)) of the following molecule: `NC[C@H]1O[C@H](O[C@H]2[C@H](O[C@@H]3O[C@H](CO)[C@@H](O)[C@H]3O)[C@@H](O)[C@H](N)C[C@@H]2N)[C@H](N)[C@@H](O)[C@@H]1O`
Result block: 25.5

###

Listed here are compounds together with their documented inhibition at 10 µM.
Target: UniProt Q06187
Test: biochemical
Settings: read-out: BTK inhibition (%), 0.75 uM BTK, […] probe 3l, 15 min preincubation
Just the number please, in %, no unit attached.

These solved cases illustrate the format of a correct answer.
1. CC(C)NCC(O)COc1ccc(CCOCC2CC2)cc1 (stereo not shown)
21
2. Cc1cc2nc3c(=O)[nH]c(=O)nc-3n(C[C@H](O)[C@H](O)[C@H](O)COP(=O)(O)O)c2cc1C
3.4
3. NS(=O)(=O)c1ccc(NC(=S)N2CCN(C/C=C/c3ccccc3)CC2)cc1
2.3

Moving on to another compound below.
Query block: UniProt Q06187 / inhibition at 10 µM / `CC(=O)O/N=C1\C(=O)N(Cc2cc(Cl)ccc2Cl)c2ccc(Cl)cc21` : value?
Result block: 28.6

###

Biological target: BTK (Homo sapiens, UniProt Q06187)
Sequence (Q06187 402-655 limits assumed): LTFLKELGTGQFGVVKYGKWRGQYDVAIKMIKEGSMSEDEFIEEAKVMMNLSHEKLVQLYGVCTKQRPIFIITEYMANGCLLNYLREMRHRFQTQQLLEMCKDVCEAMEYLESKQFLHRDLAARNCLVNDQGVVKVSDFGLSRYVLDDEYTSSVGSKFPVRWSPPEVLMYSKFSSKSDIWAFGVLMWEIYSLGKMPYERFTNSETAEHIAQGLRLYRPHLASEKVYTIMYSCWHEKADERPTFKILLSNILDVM
Assay: biochemical
Conditions: read-out: BTK inhibition (%), 0.75 uM BTK, […] probe 3l, 15 min preincubation
Measurement Label: inhibition at 10 µM (%)
Please give a number only; it is taken to be in %.

1. O=S(=O)(c1cccc2cnccc12)N1CCCNCC1
-17.9
2. Cc1cccc2c3c(ccc12)C1=C(C(=O)C3=O)[C@@H](C)CO1
22.4
3. CCn1c(C(=O)N(C2CC2)C2CC2)cc2c3c(ncn3C)c(Nc3cc(C)n(C)n3)nc21
3.4
4. Cc1cc(C)c2c(c1)[C@@H](N(Cc1cc(C(F)(F)F)cc(C(F)(F)F)c1)c1nnn(C)n1)CCCN2CC1CCC(C(=O)O)CC1 (some centres unmarked)
16.3

Query block: I am curious: what inhibition at 10 µM value has been reported for CCC1C/C(=C\c2cccnc2)C(=O)/C(=C/c2cccnc2)C1 (centres unmarked) ?
Result block: 10

Query block: Consider the molecule shown here: `CCC(=O)NCC[C@@H]1CCc2ccc3c(c21)CCO3` What is its recorded inhibition at 10 µM?
Result block: -20.2

Query block: // inhibition at 10 µM lookup, key: `Nc1nc(N)nc(-c2cc(Cl)ccc2Cl)n1`
Result block: 4.3

Query block: Which inhibition at 10 µM value belongs to `COc1c2occc2cc2ccc(=O)oc12` ?
Result block: -19.5

Query block: Consider the molecule Oc1cc(O)c2c(c1)OC(c1ccc(O)c(O)c1)C(OC1(c3ccc(O)c(O)c3)Oc3cc(O)cc(O)c3C(O)C1O)C2 (centres unmarked) and give its measured inhibition at 10 µM.
Result block: 85.7

Query block: Record request: inhibition at 10 µM value, item `C[C@H]1[C@H](OC(=O)CCC(=O)O)O[C@@H]2O[C@@]3(C)CC[C@H]4[C@H](C)CC[C@@H]1[C@@]24OO3`
Result block: 6.2

###

inhibition at 10 µM values by entry
Target: BTK (Homo sapiens)
Test: biochemical
Conditions: read-out: BTK inhibition (%), 0.75 uM BTK, […] probe 3l, 15 min preincubation
# value in %; strip the unit string

1) Cc1ccc(=O)n(-c2ccccc2)c1
20.7
2) COc1ccc2c(c1)/C(=C/c1cnc[nH]1)C(=O)N2
47.6
3) C/C(=C\c1csc(C)n1)[C@@H]1C[C@@H]2O[C@]2(C)CCC[C@H](C)[C@H](O)[C@@H](C)C(=O)C(C)(C)[C@@H](O)CC(=O)O1
-9.3
4) N#CC(C#N)=Cc1ccc(O)c(O)c1
54.5
5) CC(=O)O
-2.3

Query block: Param readout = inhibition at 10 µM; param system = BTK (Homo sapiens); param query = `CCCCc1ccc(O)cc1O` ; response: value
Result block: -8.5

Query block: Give BTK (Homo sapiens) inhibition at 10 µM for `NC[C@@H]1O[C@H](O[C@H]2[C@@H](O)[C@H](O[C@@H]3[C@@H](O)[C@H](N)C[C@H](N)[C@H]3O[C@H]3O[C@H](CO)[C@@H](O)[C@H](O)[C@H]3N)O[C@@H]2CO)[C@H](N)[C@@H](O)[C@@H]1O`
Result block: 5.1

Query block: For the record `COC(=O)N[C@H](C(=O)N[C@@H](Cc1ccccc1)[C@@H](O)CN(Cc1ccc(-c2ccccn2)cc1)NC(=O)[C@@H](NC(=O)OC)C(C)(C)C)C(C)(C)C` , what value of inhibition at 10 µM is listed for BTK (Homo sapiens)?
Result block: -10.9

###

A collection of compounds and their measured inhibition at 10 µM
Target: UniProt Q06187
Test: biochemical
Conditions: read-out: BTK inhibition (%), 0.75 uM BTK, […] probe 3l, 15 min preincubation
# unit: % | format: bare number

Look over these answered cases.
1) CC(C)(C#N)c1ccc(N2C(=O)OCc3cnc4ccc(-c5cnc6ccccc6c5)cc4c32)cc1 [PCM-0215242]
-4.8
2) CC(C)c1cccc(O)c(=O)c1 [PCM-0215059]
3.9
3) C=CC(=O)Nc1cccc(Nc2nc(Nc3ccc(NC4CN(CCF)C4)cc3OC)ncc2C(F)(F)F)c1 [PCM-0215208]
91
4) Cc1cccc(-c2[nH]c(C(C)(C)C)nc2-c2ccc3c(c2)OCO3)n1 [PCM-0095234]
9.3
5) O=C(NNc1ccccc1)c1ccncc1 [PCM-0095808]
-11.6

Query block: Identify the measured inhibition at 10 µM of Oc1ccc(Nc2nc(-c3ccc(Cl)cc3)cs2)cc1 [PCM-0095692] for UniProt Q06187.
Result block: 84.8

Query block: Form field: inhibition at 10 µM recorded for CCCCC(=O)O[C@]1(C(=O)CO)[C@@H](C)C[C@H]2[C@@H]3CCC4=CC(=O)C=C[C@]4(C)[C@@]3(F)[C@@H](O)C[C@@]21C [PCM-0095140] with UniProt Q06187 (enter value)
Result block: -15.9

Query block: Record Cc1ccc(C(=O)Nc2ccc(Oc3cc4cnn(C)c4cc3-c3cn[nH]c3)c(F)c2)c(=O)n1-c1ccc(F)cc1 [PCM-0215736] : what is its inhibition at 10 µM with UniProt Q06187?
Result block: 105

###

Molecular target: UniProtKB Q06187
Assay: biochemical
Settings: read-out: BTK inhibition (%), 0.75 uM BTK, […] probe 3l, 15 min preincubation
Measurement Label: inhibition at 10 µM (%)
Report as a plain number; the unit % is understood.

1. C#Cc1cccc(Nc2ncnc3cc(OC)c(OCCCCCCC(=O)NO)cc23)c1 [PCM-0095078]
87.6

Query block: Which inhibition at 10 µM value belongs to CN(Cc1cc(Br)cc(Br)c1N)C1CCCCC1 [PCM-0086201] ?
Result block: 29.6

Query block: Looking for the measured inhibition at 10 µM of CSCCNc1nc(SCCC(F)(F)F)nc2c1ncn2[C@@H]1O[C@H](COP(=O)(O)OP(=O)(O)C(Cl)(Cl)P(=O)(O)O)[C@@H](O)[C@H]1O [PCM-0215886] , can you help?
Result block: -50.2

Query block: # lookup: inhibition at 10 µM of C/C(=C\C(=O)Nc1ccccc1C(=O)O)c1ccc2ccccc2c1 [PCM-0095068]
Result block: -11

Query block: What value of inhibition at 10 µM has been recorded for this entry: C[C@@H]1CC[C@@]2(OC1)O[C@H]1C[C@H]3[C@@H]4CC=C5C[C@@H](O[C@@H]6O[C@H](CO)[C@@H](O[C@@H]7O[C@@H](C)[C@H](O[C@@H]8O[C@@H](C)[C@H](O)[C@@H](O)[C@H]8O)[C@@H](O)[C@H]7O)[C@H](O)[C@H]6O[C@@H]6O[C@@H](C)[C@H](O)[C@@H](O)[C@H]6O)CC[C@]5(C)[C@H]4CC[C@]3(C)[C@@]1(O)[C@@H]2C [PCM-0216432]
Result block: -12.4

Query block: Fill in: inhibition at 10 µM of Nc1nc2cc(-c3ccc4ncc(C(=O)N5CCOCC5)n4c3)ccc2o1 [PCM-0215857] is ___
Result block: 21.4

Query block: Data request, read-out inhibition at 10 µM, for C[C@@H]1CC[C@]2(C(=O)O[C@@H]3O[C@H](CO)[C@@H](O)[C@H](O)[C@H]3O)CC[C@]3(C)C(=CC[C@@H]4[C@@]5(C)CC[C@H](O)[C@@](C)(CO)[C@@H]5CC[C@]43C)[C@@H]2[C@]1(C)O [PCM-0216572]
Result block: -2.3

Query block: I have this compound here, C[C@H](N[C@@H](CCc1ccccc1)C(=O)O)C(=O)N1CCC[C@H]1C(=O)O [PCM-0065638] , and I need its recorded inhibition at 10 µM.
Result block: 3.1

Query block: Return reported inhibition at 10 µM; argument: CC(C)=CCC[C@](C)(O[C@@H]1O[C@H](CO[C@@H]2O[C@H](CO)[C@@H](O)[C@H](O)[C@H]2O)[C@@H](O)[C@H](O)[C@H]1O)[C@H]1CC[C@]2(C)[C@@H]1[C@H](O)C[C@@H]1[C@@]3(C)CC[C@H](O[C@@H]4O[C@H](CO)[C@@H](O)[C@H](O)[C@H]4O)C(C)(C)[C@@H]3CC[C@]12C [PCM-0216463]
Result block: 4.6

Query block: Endpoint output: inhibition at 10 µM of Cc1c(C(=O)NN2CCCCC2)nn(-c2ccc(Cl)cc2Cl)c1-c1ccc(I)cc1 [PCM-0095445] . Value?
Result block: 34.2

Query block: Given the compound COc1cc2nc(N(C)CCCNC(=O)C3CCCO3)nc(N)c2cc1OC (centres unmarked) [PCM-0064661] , what is its reported inhibition at 10 µM?
Result block: 1.6

Query block: // returns reported inhibition at 10 µM for input Cc1ccc(C(C)C)cc2c(C)ccc1-2 [PCM-0215089]
Result block: 10.1

Query block: Fill in the blank: the reported inhibition at 10 µM of COc1cc(Cc2cnc(N)nc2N)cc(OC)c1OC [PCM-0065007] is ____.
Result block: -7.8

Query block: // query inhibition at 10 µM value for entry C=CS(=O)(=O)NC1CCN(C(=O)CNc2cc(I)c(Cl)cc2OC)CC1 [PCM-0215340]
Result block: 6.2

Query block: What inhibition at 10 µM value was documented for this compound, O=c1ccoc2cc(O)ccc12 [PCM-0216563] ?
Result block: -2.8

Query block: // query inhibition at 10 µM value for entry C#CC[C@H](c1nc2cc(Cl)ccc2c(=O)n1Nc1ccccc1)N(CCCN)C(=O)c1cccc(Cl)c1F [PCM-0095802]
Result block: 52.5
